experiment: In vivo pharmacokinetic study of plasma and brain tissue; conditions: mouse, brain/plasma; mice, 1 mg/kg, intravenous; read-out: brain/plasma ratio
property: Kp

*Q* Given the compound CN(C)c1ccc(-c2ccc(-c3nc4ccc(NCCOCCOc5ccc6c(c5)CN(C5CCC(=O)NC5=O)C6=O)cc4s3)cc2)cn1 (stereo not shown) , write its reported Kp.
*A* ~0.31

---

assay: In vivo pharmacokinetic study of plasma and brain tissue; details: mouse; Brain, mice, 1 mg/kg, intravenous
property: Tmax (min)
Give bare numbers, in min.

*Q* State its Tmax for this compound: CN(C)c1ccc(-c2ccc(-c3nc4ccc(NCCOCCOc5ccc6c(c5)CN(C5CCC(=O)NC5=O)C6=O)cc4s3)cc2)cn1 (stereo not shown) [Compound 160313]
*A* 15
